Target: T1, dMpAgo (catalytically inactive MpAgo) (Marinitoga piezophila, UniProt H2J4R4 1-639, D446A)
T1 sequence: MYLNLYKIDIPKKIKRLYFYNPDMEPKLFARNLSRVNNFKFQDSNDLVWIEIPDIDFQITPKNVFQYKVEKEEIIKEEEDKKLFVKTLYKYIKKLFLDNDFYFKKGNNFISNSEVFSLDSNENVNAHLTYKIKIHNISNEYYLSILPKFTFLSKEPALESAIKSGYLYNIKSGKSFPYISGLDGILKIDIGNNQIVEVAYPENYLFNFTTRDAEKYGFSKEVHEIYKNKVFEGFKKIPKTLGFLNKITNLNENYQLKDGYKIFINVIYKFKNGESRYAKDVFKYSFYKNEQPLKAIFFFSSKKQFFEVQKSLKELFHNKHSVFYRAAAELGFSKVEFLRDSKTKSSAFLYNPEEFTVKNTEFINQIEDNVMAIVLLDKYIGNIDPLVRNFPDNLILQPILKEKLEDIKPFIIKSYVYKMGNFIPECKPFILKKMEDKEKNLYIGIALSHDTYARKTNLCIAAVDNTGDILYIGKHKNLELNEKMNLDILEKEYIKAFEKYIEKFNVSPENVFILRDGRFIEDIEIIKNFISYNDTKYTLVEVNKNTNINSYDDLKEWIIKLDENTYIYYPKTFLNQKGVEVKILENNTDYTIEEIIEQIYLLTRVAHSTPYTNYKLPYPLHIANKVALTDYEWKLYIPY
Test: filter binding
measured attribute: Kd (nM)
The reply should be a number in nM, with the unit left off.

Inquiry: Tell me Kd reported for BrdU guide / ON target (mixed, BrdU at guide 1) RNA 1: UAUACAACCUACUACCUCAUU RNA 2: GGACUAUGAUCUAGAUAUUAAUGAGGUAGUAGGUUGUAUCUCAGGAGGUC
Reply text: 0.175

Reference for the values: paper doi:10.1101/208041
